target: DA-uptake (reuptake of dopamine in synaptosomes) (Rattus norvegicus, UniProt P23977); construct: In synaptosomes as described in WO 97/16451; test: Inhibition of dopamine (DA) reuptake in synaptosomes
Sequence (P23977 whole entry): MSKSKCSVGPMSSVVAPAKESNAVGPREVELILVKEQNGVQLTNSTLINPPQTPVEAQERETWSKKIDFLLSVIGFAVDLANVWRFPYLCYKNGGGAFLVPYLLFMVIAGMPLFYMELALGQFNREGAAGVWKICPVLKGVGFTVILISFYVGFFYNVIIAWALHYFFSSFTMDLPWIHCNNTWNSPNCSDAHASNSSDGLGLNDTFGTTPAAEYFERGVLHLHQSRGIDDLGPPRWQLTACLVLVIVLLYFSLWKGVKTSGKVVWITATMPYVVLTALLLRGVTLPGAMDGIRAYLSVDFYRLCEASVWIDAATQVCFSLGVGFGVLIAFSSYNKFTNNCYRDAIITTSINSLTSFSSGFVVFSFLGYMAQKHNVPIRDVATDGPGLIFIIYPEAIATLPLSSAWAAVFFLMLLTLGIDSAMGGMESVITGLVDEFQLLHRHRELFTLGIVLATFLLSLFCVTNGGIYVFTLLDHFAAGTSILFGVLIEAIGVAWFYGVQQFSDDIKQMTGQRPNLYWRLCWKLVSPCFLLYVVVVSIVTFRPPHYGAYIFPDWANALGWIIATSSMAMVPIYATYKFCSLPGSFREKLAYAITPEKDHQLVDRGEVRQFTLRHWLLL
Rule: measured IC50 below 300 nM gets satisfied; anything equal to or greater than 300 nM gets not satisfied.

- c1csc(C2CC3CCC(N3)C2COc2cccc3ccccc23)c1 (stereo not drawn): satisfied
- CN1C2CCC1[C@H](COc1cccc3ccccc13)[C@@H](c1ccco1)C2 (stereo partly drawn): not satisfied
- CN1C2CCC1[C@H](COc1cccc(Cl)c1Cl)[C@@H](c1ccco1)C2.O=C(O)/C=C/C(=O)O (stereo partly drawn): not satisfied
- CN1C2CCC1[C@H](COc1cccc3ccccc13)[C@@H](c1cccs1)C2.O=C(O)/C=C/C(=O)O (stereo partly drawn): not satisfied
- Clc1cccc(OCC2C3CCC(CC2c2cccs2)N3)c1Cl (stereo not drawn): satisfied
